# Assay name: Solubility of compound in water
# Type: physicochemical
Measured property: solubility (µg/mL)

Sample smiles	Measured property	Reported
C[C@H](O)CCC/C=C\CCCCCCC/C=C\CCCC(=O)[O-].[Na+]	solubility	250
C[C@@H](O)CCC/C=C\CCCCCCC/C=C\CCCC(=O)NCC(=O)[O-].[Na+]	solubility	500

1. C[C@H](O)CCC/C=C\CCCCCCC/C=C\CCCC(=O)NCC(=O)[O-].[Na+]
2. C[C@@H](O)CCC/C=C\CCCCCCC/C=C\CCCC(=O)[O-].[Na+]
-- ask Quick check, higher solubility between 1 and 2 ? Identify your selection by its label.
-- reply 1
(1: 500 µg/mL, 2: 250 µg/mL)
